Values were extracted from the supplement of paper PMC10307832.

Property: relative viability; scope: individual compounds
system: COR-L23; assay: relative viability (nuclei count vs DMSO), 5 days (fraction); higher = more cells survive; conditions: first compound 0.08 µM
The answer should be written as a number, with no unit following it.

compound | relative viability
COc1nc(C)cnc1NS(=O)(=O)c1cccnc1-c1ccc(-c2nnco2)cc1 [Zibotentan] + Cc1nc(Nc2ncc(C(=O)Nc3c(C)cccc3Cl)s2)cc(N2CCN(CCO)CC2)n1 [Dasatinib] (partner 0.075 µM) | 0.502
O=c1cc(-c2cccc3c2Sc2ccccc2S3)oc(N2CCOCC2)c1 + CC(=O)Nc1cccc(-n2c(=O)n(C3CC3)c(=O)c3c(Nc4ccc(I)cc4F)n(C)c(=O)c(C)c32)c1 [Trametinib] (partner 0.02 µM) | 0.593
O=c1cc(-c2cccc3c2Sc2ccccc2S3)oc(N2CCOCC2)c1 + C[C@@H](Oc1cc(-c2cnn(C3CCNCC3)c2)cnc1N)c1c(Cl)ccc(F)c1Cl [Crizotinib] (partner 1 µM) | 0.744
O=c1cc(-c2cccc3c2Sc2ccccc2S3)oc(N2CCOCC2)c1 + CS(=O)(=O)N1CCN(Cc2cc3nc(-c4cccc5[nH]ncc45)nc(N4CCOCC4)c3s2)CC1 [Pictilisib] (partner 1 µM) | 0.92

Query string: Determine its reported relative viability: O=c1cc(-c2cccc3c2Sc2ccccc2S3)oc(N2CCOCC2)c1 + COc1cccc2cc(-c3nc([C@H]4CC[C@H](C(=O)O)CC4)n4ncnc(N)c34)[nH]c12 [OSI-027] (partner 0.5 µM)
Result string: 0.8

Query string: Return reported relative viability. Input compound: COc1nc(C)cnc1NS(=O)(=O)c1cccnc1-c1ccc(-c2nnco2)cc1 [Zibotentan] + CC1(C)CCC(c2ccc(Cl)cc2)=C(CN2CCN(c3ccc(C(=O)NS(=O)(=O)c4ccc(N[C@H](CCN5CCOCC5)CSc5ccccc5)c(S(=O)(=O)C(F)(F)F)c4)cc3)CC2)C1 [Navitoclax] (partner 0.5 µM)
Result string: 1.03

Query string: Please give the documented relative viability of COc1nc(C)cnc1NS(=O)(=O)c1cccnc1-c1ccc(-c2nnco2)cc1 [Zibotentan] + O=C(c1cc(Cc2n[nH]c(=O)c3ccccc23)ccc1F)N1CCN(C(=O)C2CC2)CC1 [Olaparib] (partner 8 µM)
Result string: 0.324

Query string: Quickly give me recorded relative viability for COc1nc(C)cnc1NS(=O)(=O)c1cccnc1-c1ccc(-c2nnco2)cc1 [Zibotentan] + C[C@@H](Oc1cc(-c2cnn(C3CCNCC3)c2)cnc1N)c1c(Cl)ccc(F)c1Cl [Crizotinib] (partner 1 µM)
Result string: 0.838

Query string: Dear colleague, please send me the reported relative viability for O=c1cc(-c2cccc3c2Sc2ccccc2S3)oc(N2CCOCC2)c1 + COc1cc2c(Oc3ccc(NC(=O)C4(C(=O)Nc5ccc(F)cc5)CC4)cc3F)ccnc2cc1OCCCN1CCOCC1 [Foretinib] (partner 0.25 µM) when you can.
Result string: 0.946

Query string: // fetch relative viability given entry COc1nc(C)cnc1NS(=O)(=O)c1cccnc1-c1ccc(-c2nnco2)cc1 [Zibotentan] + CC(C)C[C@H](NC(=O)[C@H](Cc1ccccc1)NC(=O)c1cnccn1)B(O)O [Bortezomib] (partner 0.002 µM)
Result string: 0.999

Query string: Read the entry COc1nc(C)cnc1NS(=O)(=O)c1cccnc1-c1ccc(-c2nnco2)cc1 [Zibotentan] + CC(=O)c1c(C)c2cnc(Nc3ccc(N4CCNCC4)cn3)nc2n(C2CCCC2)c1=O [Palbociclib] (partner 0.5 µM) and write its reported relative viability.
Result string: 0.338

Query string: Read off the recorded relative viability for COc1nc(C)cnc1NS(=O)(=O)c1cccnc1-c1ccc(-c2nnco2)cc1 [Zibotentan] + N=C(N)NC(=N)NCCc1ccccc1 [Phenformin] (partner 250 µM)
Result string: 0.445

Query string: Assign relative viability to the following record: O=c1cc(-c2cccc3c2Sc2ccccc2S3)oc(N2CCOCC2)c1 + CC1(C)CCC(c2ccc(Cl)cc2)=C(CN2CCN(c3ccc(C(=O)NS(=O)(=O)c4ccc(N[C@H](CCN5CCOCC5)CSc5ccccc5)c(S(=O)(=O)C(F)(F)F)c4)cc3)CC2)C1 [Navitoclax] (partner 0.5 µM)
Result string: 1.26
